# Test system: M14 melanoma
# assay method text: NCI tumour cell line growth inhibition, 48 h; in the data active = GI50 below about 0.43 µM; inactive = the rest
Your reply should match one of these outcome classes. active, inactive

Prompt: Which result was noted for this compound in the test: O=C(NCC1CCCO1)c1ccc(NC2=C(Cl)C(=O)N(Cc3ccccc3)C2=O)cc1 (stereo not drawn)
Completion: inactive

Prompt: What classification did CCCCCCCCCCCCOC1C(CNC(=O)C2OC3OC(C)(C)OC3C2NC(=O)CN2CCN(c3ccc(OC)cc3)CC2)OC2OC(C)(C)OC21 (stereo not drawn) end up with in this test?
Completion: inactive

Prompt: Outcome logged for `C/C(=C(\c1ccc(OCCN2CCCCCC2)cc1)c1ccc(OC(=O)c2ccccc2)cc1)c1ccc(Cl)cc1` in this assay:
Completion: inactive

Prompt: Outcome? `Cc1cc(Nc2cc(N3CCN(C)CC3)nc(/C=C/c3ccccc3)n2)n[nH]1`
Completion: active

Prompt: Write down the call the test reported for this compound. Item: CC(C)CCCCCCCCCCCCC(=O)NCC(=O)NC1C(O)C(O)C(Nc2ncnc3nc[nH]c23)OC1C(O)CO (stereo not drawn)
Completion: active

Prompt: Hi team, can someone confirm the assay call for `CC(=O)C1=C(O)C=C2Oc3c(C(=O)/C=C/c4cc(Cl)cc(Cl)c4)c(O)c(C)c(O)c3[C@]2(C)C1=O` ?
Completion: inactive

Prompt: Write down the call the test reported for this compound. Item: `N/N=C(/Cc1nc2ccc(C(=O)c3ccccc3)cc2[nH]c1=O)C(=O)Nc1ccc([N+](=O)[O-])cc1[N+](=O)[O-]`
Completion: inactive

Prompt: // param item: `O=C1c2ccccc2-c2c1c1ccccc1c(=O)n2CCCNCCn1c2c(c3ccccc3c1=O)C(=O)c1ccccc1-2` ; yields the recorded call
Completion: inactive

----------
# Tested on: A549 NSCLC
# assay method text: NCI tumour cell line growth inhibition, 48 h
readout type: TGI (µM)
Note: unit µM is implicit; provide only the numeric part.

Prompt: Endpoint output: TGI of `O=c1c(Cl)c(Cl)cnn1CCCl` . Value?
Completion: 35.3

Prompt: Name the reported TGI value associated with the compound `CCCCCCCC/C=C/CCCCCCCC1=NC(C)(C)CN1CCO`
Completion: 3.56

----------
# Tested on: HCT-116 colon
# assay method text: NCI tumour cell line growth inhibition, 48 h; in the data active means GI50 below about 0.43 µM; inactive means the rest
Please state which outcome applies, choosing from yes (1) = active, no (0) = inactive

Prompt: In this assay, the call recorded for `Cc1cc2c(-c3nc4ccccn4c3N)c(O)c(O)cc2c(O)c1-c1c(C)cc2c(-c3nc4ccccn4c3N)c(O)c(O)cc2c1O` was what?
Completion: yes (1)

Prompt: Lab log entry: CSc1nc2c(c(=O)n1C)CN(C1CCCCC1)C(=O)C(c1ccccc1)N2 (stereo not drawn) — outcome as called in the assay?
Completion: no (0)

Prompt: Tell me the recorded outcome of this test for `Cc1cn(Cc2ccc(C34CC5CC(CC(C5)C3)C4)c(O)c2)c(=O)[nH]c1=O` .
Completion: no (0)

Prompt: Tell me the recorded outcome of this test for `CCCCCCCC/C=C/CCCCCCCC1=NC(C)(C)CN1CCO` .
Completion: no (0)

Prompt: Query: recorded result category for `Clc1ccccc1-c1nnc2c(Cc3ccccc3)nc3ccccc3n12` in this test
Completion: no (0)

Prompt: Record lookup: outcome of this test for `CCOc1ccn(-c2ccc(F)cc2)c(=O)c1C(=O)Nc1ccc(Oc2ccnc(N)c2Cl)c(F)c1` ?
Completion: no (0)

Prompt: Please share the test call associated with `CC(=O)[CH-]C(=O)c1ccccc1.CC(=O)[CH-]C(=O)c1ccccc1.O=S(=O)([O-])c1cc([O-])c2c([O-])cc(S(=O)(=O)[O-])cc2c1.[Na+].[Zr+4]` .
Completion: no (0)

Prompt: Status in this test for `Cc1cc(-c2cc(O)ccc2Cl)cc2nnc(Nc3ccc(OCCN4CCCC4)cc3)nc12` ?
Completion: yes (1)

Prompt: I would be grateful if you could indicate the recorded call for `c1ccc(CNCCN(CCNCc2ccccn2)Cc2ccc3ccccc3c2)nc1` .
Completion: no (0)

Prompt: Hi, do you know how `CC(=O)[CH-]C(=O)c1ccccc1.CC(=O)[CH-]C(=O)c1ccccc1.CC(=O)[CH-]C(=O)c1ccccc1.[Nd+3].[OH3+]` came out in this test?
Completion: no (0)

Prompt: Could you kindly confirm the outcome this assay logged for CCCCCCCCCCCCOC1C(CNC(=O)C2OC3OC(C)(C)OC3C2NC(=O)CN2CCN(c3ccc(OC)cc3)CC2)OC2OC(C)(C)OC21 (stereo not drawn) ?
Completion: no (0)

Prompt: Recorded test outcome, item `CC(C)COc1nc2c(c(=O)n(C)c(=O)n2C)n1C`
Completion: no (0)

Prompt: Outcome logged for `O=C1c2ccccc2-c2c1c1ccccc1c(=O)n2CCCNCCn1c2c(c3ccccc3c1=O)C(=O)c1ccccc1-2` in this assay:
Completion: no (0)

Prompt: Hi team, can someone confirm the assay call for `CC[C@@H](C)/C=C(C)/C=C/C(=O)c1c(O)c(-c2ccc(O)cc2)cn(O)c1=O` ?
Completion: yes (1)

Prompt: Could you check what this test reported for C#CCN(c1ccc(C(=O)N[C@@H](CCC(=O)N[C@H](CCC(=O)O)C(=O)O)C(=O)O)cc1)C1CCc2cc3nc(CO)[nH]c(=O)c3cc21 (stereo partly drawn) ?
Completion: no (0)

Prompt: Assay result, entry CO[C@H]1CC(O[C@@H]2/C(C)=C/C[C@@H]3C[C@@H](C[C@]4(CC[C@H](C)[C@@H](C5CCCCC5)O4)O3)OC(=O)[C@@H]3C=C(C)/C(=N/O)[C@H]4OC/C(=C\C=C\[C@@H]2C)[C@]43O)O[C@@H](C)C1O (stereo partly drawn) — outcome?
Completion: no (0)

Prompt: Please share the test call associated with `COc1cccc(Nc2nc3ccccc3c3occc23)c1` .
Completion: no (0)

Prompt: What did the test return for `Cc1cc(Nc2cc(N3CCN(C)CC3)nc(/C=C/c3ccccc3)n2)n[nH]1` ?
Completion: yes (1)

----------
# Tested on: OVCAR-3 ovarian
# assay method text: NCI tumour cell line growth inhibition, 48 h
Can you tell me TGI for the items I'm about to list?

Prompt: Query: TGI; subject: `CC(=O)O[C@H]1C(=O)[C@@]2(C)[C@H]([C@H](OC(=O)c3ccccc3)[C@]3(O)C[C@H](OC(=O)[C@H](O)[C@@H](NC(=O)c4ccco4)c4ccccc4)C(C)=C1C3(C)C)[C@]1(OC(C)=O)CO[C@@H]1C[C@@H]2O`
Completion: 0.00548 µM

Prompt: What TGI value was documented for this molecule, `Cc1cccc2sc(-c3ccc(O)cc3)nc12` ?
Completion: 29.8 µM

Prompt: Name the recorded TGI for `CCCSc1ccc2[nH]c(N3C(=O)/C(=C/c4ccc(SC)cc4)N=C3c3ccccc3)cc2c1` .
Completion: > 50 µM

Prompt: Endpoint output: TGI of `O=C(c1ccccc1)N1CCC(CC2(c3cc4ccccc4[nH]3)OCCO2)CC1` . Value?
Completion: > 100 µM

Prompt: What does the data say about its TGI? Entry: Cc1cccc(C)c1N1C(=O)C(=O)C(c2nc3ccccc3s2)/C(=N\N)C1=O (centres undefined)
Completion: > 100 µM

Prompt: What does the data say about its TGI? Entry: `N#Cc1cnc(Nc2cc(NC[C@H]3CNCCO3)c(C(F)(F)F)cn2)cn1`
Completion: 48.3 µM

Prompt: Look up TGI: CSc1nc2c(c(=O)n1C)N=C(c1ccc([N+](=O)[O-])cc1)CC(c1ccccc1)N2 (centres undefined)
Completion: > 100 µM

Prompt: Item `CN(/N=C\c1ccnc2ccccc12)c1ccc([N+](=O)[O-])cc1` has what recorded TGI?
Completion: > 100 µM

Prompt: For the molecule `COC(C)(C)/C=C/c1[nH]c2ccccc2c1CC(=O)NCCc1cn(C(c2ccccc2)(c2ccccc2)c2ccccc2)cn1` , what TGI is on record?
Completion: > 29.2 µM

----------
# Test system: MDA-MB-435
Select the matching outcome among Yes (active), No (inactive)

Prompt: For this compound, state the assay outcome: `O=C1c2ccccc2-c2c1c1ccccc1c(=O)n2CCCNCCn1c2c(c3ccccc3c1=O)C(=O)c1ccccc1-2`
Completion: No

Prompt: Query: recorded result category for CCN(CC)CCCC(C)N/C(=C1\C(=O)NC(=O)\C1=C(/NC(C)CCCN(CC)CC)c1cccc(OC)c1)c1cccc(OC)c1 (centres undefined) in this test
Completion: No

Prompt: Hi, sorry to bother you, what did the test record for `COc1ccc(/C=C2/SC(Nc3nc(-c4nc(NC5=NC(=O)/C(=C\c6ccc(OC)cc6)S5)sc4C)c(C)s3)=NC2=O)cc1` ?
Completion: Yes

Prompt: Which outcome was entered for the compound CSc1nc2c(c(=O)n1C)CN(C1CCCCC1)C(=O)C(c1ccccc1)N2 (centres undefined) in this test?
Completion: No

----------
# Test system: OVCAR-3 ovarian
# assay method text: NCI tumour cell line growth inhibition, 48 h; in the data active = GI50 below about 0.43 µM; inactive = the rest
A correct response names exactly one class from active, inactive

Prompt: Hello, I am checking results. What call was entered for `Cc1cc(C)c(-c2c(N)cc(Br)cc2Br)c(N)c1` ?
Completion: inactive

Prompt: Per the records of this test, what outcome belongs to `O=C1c2ccccc2-c2c1c1ccccc1c(=O)n2CCCNCCn1c2c(c3ccccc3c1=O)C(=O)c1ccccc1-2` ?
Completion: inactive

Prompt: Name the outcome recorded for C=CCC(N[C@H](CO)c1ccccc1)c1cn(Cc2ccccc2Cl)c(=O)n(Cc2ccccc2Cl)c1=O (stereo partly specified) in the assay.
Completion: inactive

Prompt: Short answer needed: outcome of this test for `CC[C@@H](C)/C=C(C)/C=C/C(=O)c1c(O)c(-c2ccc(O)cc2)cn(O)c1=O` ?
Completion: active

Prompt: Call for entry CCCCCCCCCCCCOC1C(CNC(=O)C2OC3OC(C)(C)OC3C2NC(=O)CN2CCN(c3ccc(OC)cc3)CC2)OC2OC(C)(C)OC21 (stereo unspecified) :
Completion: inactive

Prompt: GET /call?item= `Cc1cc(Nc2nc(N[C@@H](C)c3ncc(F)cn3)ncc2Cl)n[nH]1` returns the recorded outcome of this test.
Completion: inactive

Prompt: In this assay, the call recorded for `CC(C)COc1nc2c(c(=O)n(C)c(=O)n2C)n1C` was what?
Completion: inactive

Prompt: What was the test verdict on `N#Cc1cnc(Nc2cc(NC[C@H]3CNCCO3)c(C(F)(F)F)cn2)cn1` ?
Completion: inactive

Prompt: // outcome(item) with item = `CCOc1ccn(-c2ccc(F)cc2)c(=O)c1C(=O)Nc1ccc(Oc2ccnc(N)c2Cl)c(F)c1`
Completion: inactive

Prompt: For `CCCCCCCCCC[C@H](O)[C@H](O)CC[C@@H](O)[C@H]1CC[C@@H]([C@H]2CC[C@H](CCCCCCC[C@@H](O)CC3=C[C@H](C)OC3=O)O2)O1` , which call appears in the assay record?
Completion: inactive

Prompt: What classification did C=CCC(N[C@@H](CO)c1ccccc1)c1cn(C(=O)OCC)c2ccccc12 (stereo partly specified) end up with in this test?
Completion: inactive

Prompt: Call for entry CN1CCN(C(=O)COc2ccc(/C=C3\CC4C5CC=C6CC(Cl)CCC6(C)C5CCC4(C)C3=O)cc2)CC1 (stereo unspecified) :
Completion: inactive

Prompt: How was `Nc1nc(/C=C\c2ccccc2)nc(N2CCN(c3ccccc3)CC2)n1` classified in this test?
Completion: inactive

Prompt: Lab log entry: COc1cc(C2c3cc4c(cc3C(OC(=O)C[n+]3ccccc3)C3COC(=O)C23)OCO4)cc(OC)c1OC (stereo unspecified) — outcome as called in the assay?
Completion: active

Prompt: What call does the record list for CCN(CC)CCCC(C)N/C(=C1\C(=O)NC(=O)\C1=C(/NC(C)CCCN(CC)CC)c1cccc(OC)c1)c1cccc(OC)c1 (stereo unspecified) ?
Completion: inactive

Prompt: Recorded test call requested for CC(=O)N1N=C(c2ccc(Nc3nc(Nc4ccc(F)cc4)nc(Nc4ccc(F)cc4)n3)cc2)CC1c1ccc(N(C)C)cc1 (stereo unspecified)
Completion: inactive
